procedure.details: gradient 5% acetonitrile 3 min, to 50% in 2 min, to 85% in 15 min, held 3 min, 100 µL/min
condition.context: column: Zorbax Extend-C18 2.1 x 50 mm; eluents: water / acetonitrile, 0.1% formic acid
measured.endpoint: RP-LC retention time (s)

{"columns": ["compound", "RP-LC retention time [s]"],
 "data": [
  ["O=C(CCCN1C(=O)C(c2ccccc2)Oc2cccnc21)NCCCN1CCCCC1 (stereo not given)", 573],
  ["O=C(CCCc1ccccc1)N1CCN(c2nc(CN3CCCCC3)cs2)CC1", 692],
  ["O=C(c1ccco1)N1CCCC(Nc2ncnc3c2CCC3)C1 (stereo not given)", 570]
]}

(a) Cc1ccc(N2CCN(C(=O)c3cn4ccc(C)cc4n3)CC2)cc1
(b) Cc1cc2nc(C(=O)Nc3ccccc3F)cc(C)n2n1
Enquiry: Looking only at measured RP-LC retention time, which entry is lower, a or b ? Write down the label attached to your selection.
Return: a

---

procedure.details: gradient 5% acetonitrile 3 min, to 50% in 2 min, to 85% in 15 min, held 3 min, 100 µL/min
condition.context: column: Zorbax Extend-C18 2.1 x 50 mm; eluents: water / acetonitrile, 0.1% formic acid
measured.endpoint: RP-LC retention time (s)

Some solved entries appear below for comparison.
{"columns": ["compound", "units.label", "RP-LC retention time"],
 "data": [
  ["Cc1ccc(C)c(NC(=O)Cn2ccc3ccn(C)c3c2=O)c1", "s", 784],
  ["CN(CC(=O)N1CCN(c2ccccc2F)CC1)S(=O)(=O)c1c[nH]c(C(=O)N2CCCCC2)c1", "s", 836],
  ["CCc1nnc(-c2ccc(=O)n(CC(=O)N3CCC4(CC3)OCCO4)c2)o1", "s", 594]
]}

(A) COc1ccc(NC(=O)N2CCN(CCn3c(C(F)(F)F)nc4cccnc43)CC2)cc1
(B) Cc1cccc(-c2nc(C3CC(=O)N(c4ccc(Cl)cc4)C3)no2)c1 (stereo not drawn)
Enquiry: Looking only at measured RP-LC retention time, which entry is lower, A or B ? Write down the label attached to your selection.
Return: A
(A: 624 s, B: 1110 s)

---

procedure.details: gradient 5% acetonitrile 3 min, to 50% in 2 min, to 85% in 15 min, held 3 min, 100 µL/min
condition.context: column: Zorbax Extend-C18 2.1 x 50 mm; eluents: water / acetonitrile, 0.1% formic acid
measured.endpoint: RP-LC retention time (s)

Some solved entries appear below for comparison.
{"columns": ["compound", "RP-LC retention time / s"],
 "data": [
  ["O=C(NC1CC1)C1CCN(S(=O)(=O)c2cc(-c3noc(C4CCC4)n3)cs2)CC1", 878],
  ["CNC(=O)c1c(F)cccc1Nc1nc(Nc2cc3c(cc2OC)CCN3C(=O)CN(C)C)nc2[nH]ccc12", 652]
]}

(a) COc1ccc(C(=O)N2CCn3c(C)nnc3C2)c(OC)c1
(b) CCc1nn2c(CNC(=O)c3ccc(C(C)C)cc3)c(-c3ccccc3)nc2s1
Enquiry: Rank a against b by their RP-LC retention time values and give the higher one. Write down the label attached to your selection.
Return: b

---

procedure.details: gradient 5% acetonitrile 3 min, to 50% in 2 min, to 85% in 15 min, held 3 min, 100 µL/min
condition.context: column: Zorbax Extend-C18 2.1 x 50 mm; eluents: water / acetonitrile, 0.1% formic acid
measured.endpoint: RP-LC retention time (s)

{"columns": ["molecule", "RP-LC retention time, s"],
 "data": [
  ["Cc1cccc(C(=O)N2CCc3ccc(CNC(=O)NCC4CCCO4)cc32)c1 (centres undefined)", 894],
  ["O=C(c1cc(F)cc(F)c1)N1CCC(n2c(-c3ccco3)nc3cccnc32)C1 (centres undefined)", 766],
  ["CCOc1ccc(C(=O)N2CCc3cc(-c4csc(C)n4)ccc32)cc1", 1060],
  ["CCc1noc(C2(NC(=O)c3cccc(Cl)c3)CCCCC2)n1", 1030]
]}

(1) CCc1nnc(-c2ccc(S(=O)(=O)N3CCOCC3)o2)o1
(2) CCCn1nc(-c2nc(-c3cccc(Cl)c3)no2)ccc1=O
Enquiry: Looking only at measured RP-LC retention time, which entry is lower, 1 or 2 ? Write down the label attached to your selection.
Return: 1
(1: 714 s, 2: 1150 s)

Data origin: the METLIN SMRT retention time set (Domingo-Almenara et al. 2019)
